Each record here notes measured viability at 28.5 h, 10 µM.
- experiment-description: in vitro
- test-parameters: human, hela cells, % viability, bulk resorufin, single well
result-type: viability at 28.5 h, 10 µM (%)

1. CCOC(=O)C1(c2ccccc2)CCN(C(=O)c2ccco2)CC1; 86.2
2. CC[C@H](N)Cn1nc(-c2cccs2)oc1=O; 82.6
3. O=C(Nc1cccc(Cl)c1)N1CCC2(CC1)OCc1cc(F)ccc1O2; 87.5
4. C=CCN1C(=O)NC(=O)C(CCc2ccccn2)(CCc2ccccn2)C1=O; 104
5. N#CC(CCN1CCOCC1)(c1ccccc1)c1ccccc1; 90.5
6. O=C1NC(=O)N(c2ccc(Cl)cc2)C(=O)/C1=C\NCCCO; 90.2
7. CC1(C)CC(=O)C(C2(O)C(=O)Nc3ccc(Br)cc32)CO1 (stereo not shown); 92.3
8. CCCN(CCc1cccnc1)C1Cc2cc(OC)c(OC)cc2C1 [CBK023935C]; 88.1
9. CN1C(=O)C(=CNCCCC(=O)O)C(=O)N(C)C1=O; 90.4
10. O=C1NC(=O)N(Cc2ccco2)C(=O)/C1=C\c1cn(Cc2ccccc2)c2ccccc12; 88.5
